targetOrTestSystem: BRG-1 (Homo sapiens)
Construct: made in house; host or cells: High Five insect cells
protocol: ATPase catalytic activity of BRG-1, ADP-Glo in vitro biochemical assay
experimentalParameters: ADP-Glo ATPase assay, 30 nM BRG-1, 400 μM ATP; read-out: BRG1 IC50
assayReadout: pIC50
Units for pIC50: none; it is -log10 of a concentration expressed in mol/L.

Input line: Answer with the recorded pIC50 of O=C(NCc1cc2nc(N3CCOc4cc(C(F)F)ncc43)ccc2cn1)c1ccc2c(c1)S(=O)(=O)CCOC2 only.
Output line: 6.01

Input line: Respond only with pIC50 recorded for O=C(NCc1cc2nc(N3CCOc4ccc(C5(F)CC5(F)F)nc43)ccc2cn1)c1ccc2c(c1)S(=O)(=O)CCOC2 (stereo not drawn)
Output line: 5.39

Input line: # return recorded pIC50 for input CS(=O)(=O)c1cc(C(=O)NCc2cc3nc(-c4cncc(C5CC5)n4)ccc3cn2)cc(F)c1Cl
Output line: 5.37

Input line: Return pIC50 for the following compound: O=C(NCc1cc2nc(N3CCOc4cnc(C5CC5)cc43)ccc2cn1)c1ccc2c(c1)S(=O)(=O)CCOC2
Output line: 6.91

Input line: Using the record for O=C(NCc1cc2nc(N3CCCc4ccc(OCC5CCCO5)cc43)ccc2cn1)c1ccc2c(c1)S(=O)(=O)CCOC2 (stereo not drawn) , state its measured pIC50.
Output line: 6.93

Input line: Please give measured pIC50 of the following entry: CCO[C@@H]1CCOc2c(-c3ccc4cnc(CNC(=O)c5ccc6c(c5)S(=O)(=O)CCOC6)cc4n3)cccc21
Output line: 7.00

Input line: Respond only with pIC50 recorded for O=C(NCc1cc2nc(-c3cccc(OCC(F)F)c3)ccc2cn1)c1ccc2c(c1)S(=O)(=O)CCOC2
Output line: 5.56

Input line: Let me know recorded pIC50 for O=C(NCc1cc2nc(-c3cccc(N4CC[C@@H](F)C4)n3)ccc2cn1)c1ccc2c(c1)S(=O)(=O)CCOC2 , thanks.
Output line: 6.87

Input line: Give pIC50 for the following compound: C[C@@H]1CN(c2cccc(-c3ccc4cnc(CNC(=O)c5ccc6c(c5)S(=O)(=O)[C@@H](C)CCO6)cc4n3)n2)C[C@H](C)O1
Output line: 7.29

Input line: Return the recorded pIC50 value; entry: O=C(NCc1cc2nc(N3CCCc4cc5c(cc43)OCCO5)ccc2cn1)c1ccc2c(c1)S(=O)(=O)CCOC2
Output line: 6.85

Input line: Consider the compound O=C(NCc1cc2nc(N3CCn4ncc(C5CC5)c4C3)ccc2cn1)c1ccc2c(c1)S(=O)(=O)CCOC2 . State its measured pIC50.
Output line: 5.40

Input line: Fill in pIC50 for record O=C(NCc1cc2nc(N3CCOc4cc(N5CCC(F)(F)C5)cnc43)ccc2cn1)c1ccc2c(c1)S(=O)(=O)CCOC2
Output line: 6.30

Input line: Give recorded pIC50. COc1cncc2c1CCCN2c1ccc2cnc(CNC(=O)c3ccc4c(c3)S(=O)(=O)CCOC4)cc2n1
Output line: 7.17

Input line: Give me measured pIC50, please, for this compound: CS(=O)(=O)c1cc(C(=O)NCc2cc3nc(-c4cccc(C5CC5)n4)ccc3cn2)ccc1C#N
Output line: 5.30

Input line: Name the recorded pIC50 of the item O=C(NCc1cc2nc(-c3cccc(C4CC4)n3)ccc2cn1)c1cc(F)c2c(c1)S(=O)(=O)CCOC2 in your answer.
Output line: 6.20

====

Give measured IC50 for each item. Keep answers brief.
targetOrTestSystem: BRG-1 (Homo sapiens, UniProt P51532)
Construct: made in house; host or cells: High Five insect cells
Sequence (P51532 whole entry): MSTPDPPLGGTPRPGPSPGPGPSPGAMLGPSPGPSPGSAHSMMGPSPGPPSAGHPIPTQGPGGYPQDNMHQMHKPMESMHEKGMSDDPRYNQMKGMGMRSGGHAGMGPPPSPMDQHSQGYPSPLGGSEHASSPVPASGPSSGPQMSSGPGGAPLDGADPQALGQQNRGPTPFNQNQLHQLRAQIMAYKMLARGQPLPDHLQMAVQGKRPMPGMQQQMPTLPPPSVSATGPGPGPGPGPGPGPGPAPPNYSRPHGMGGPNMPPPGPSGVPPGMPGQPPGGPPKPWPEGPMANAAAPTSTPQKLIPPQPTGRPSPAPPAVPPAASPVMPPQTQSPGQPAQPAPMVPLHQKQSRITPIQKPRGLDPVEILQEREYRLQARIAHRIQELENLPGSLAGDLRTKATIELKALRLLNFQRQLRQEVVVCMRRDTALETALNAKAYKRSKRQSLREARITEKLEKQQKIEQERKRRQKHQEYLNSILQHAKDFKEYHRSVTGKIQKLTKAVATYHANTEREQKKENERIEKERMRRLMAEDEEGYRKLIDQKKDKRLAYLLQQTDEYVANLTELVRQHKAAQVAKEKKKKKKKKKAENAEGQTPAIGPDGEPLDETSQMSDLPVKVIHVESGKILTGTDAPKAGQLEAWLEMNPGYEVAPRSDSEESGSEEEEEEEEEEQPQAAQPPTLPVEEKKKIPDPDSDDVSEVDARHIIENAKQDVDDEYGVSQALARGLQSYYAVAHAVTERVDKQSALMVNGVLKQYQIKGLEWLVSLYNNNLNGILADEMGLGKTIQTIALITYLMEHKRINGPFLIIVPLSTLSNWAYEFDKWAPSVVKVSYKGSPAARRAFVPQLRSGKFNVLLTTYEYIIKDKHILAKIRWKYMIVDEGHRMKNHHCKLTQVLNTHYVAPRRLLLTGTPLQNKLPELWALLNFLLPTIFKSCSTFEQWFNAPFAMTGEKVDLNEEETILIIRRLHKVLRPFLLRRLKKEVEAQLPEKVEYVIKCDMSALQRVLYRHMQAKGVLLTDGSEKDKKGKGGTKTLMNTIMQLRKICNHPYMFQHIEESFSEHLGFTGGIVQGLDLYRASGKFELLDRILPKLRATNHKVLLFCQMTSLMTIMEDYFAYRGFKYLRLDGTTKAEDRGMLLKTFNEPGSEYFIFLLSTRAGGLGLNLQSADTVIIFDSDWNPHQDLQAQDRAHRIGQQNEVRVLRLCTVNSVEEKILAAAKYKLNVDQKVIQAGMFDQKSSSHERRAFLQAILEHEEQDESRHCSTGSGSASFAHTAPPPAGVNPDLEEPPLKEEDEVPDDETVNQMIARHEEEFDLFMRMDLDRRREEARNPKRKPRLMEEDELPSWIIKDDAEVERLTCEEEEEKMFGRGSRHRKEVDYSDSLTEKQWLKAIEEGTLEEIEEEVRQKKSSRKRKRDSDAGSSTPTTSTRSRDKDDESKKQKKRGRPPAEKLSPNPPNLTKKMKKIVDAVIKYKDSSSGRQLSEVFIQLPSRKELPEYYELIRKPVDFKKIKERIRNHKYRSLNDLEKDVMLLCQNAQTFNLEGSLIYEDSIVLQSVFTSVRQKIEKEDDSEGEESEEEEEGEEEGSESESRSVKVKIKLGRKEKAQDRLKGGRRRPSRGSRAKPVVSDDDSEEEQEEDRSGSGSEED
protocol: ATPase catalytic activity of BRG-1, ADP-Glo in vitro biochemical assay
experimentalParameters: ADP-Glo ATPase assay, 30 nM BRG-1, 400 μM ATP; read-out: BRG1 IC50
Entry rule: numbers only, all in nM.

Input line: Supply measured IC50 of CN(C)c1ccnc2c1CCCN2c1ccc2cnc(CNC(=O)c3ccc4c(c3)S(=O)(=O)CCOC4)cc2n1 [Compound 837] in your reply.
Output line: 163

Input line: // fetch IC50 given entry COC(C)(C)CN(C)c1cccc(-c2ccc3cnc(CNC(=O)c4ccc5c(c4)S(=O)(=O)CCOC5)cc3n2)n1 [Compound 44]
Output line: 694

Input line: Entry O=C(NCc1cc2cc(N3CCOc4cnc(C5CC5)nc43)ccc2cn1)c1ccc2c(c1)S(=O)(=O)CCOC2 [Compound 822] needs its IC50 filled in; supply it.
Output line: 458

Input line: Look up IC50 of CN(c1cccc(-c2ccc3cnc(CNC(=O)c4ccc5c(c4)S(=O)(=O)CCOC5)cc3n2)n1)C1CC1 [Compound 94] and report it.
Output line: 288

Input line: Supply IC50 value. Item: C[C@H]1CN(c2cccc(-c3ccc4cnc(CNC(=O)c5ccc(C(F)F)c(S(C)(=O)=O)c5)cc4n3)n2)C[C@H](C)O1 [Compound 162]
Output line: 564

Input line: Check the records and state IC50 for CO[C@@H](C)COc1ccc2c(c1)N(c1ccc3cnc(CNC(=O)c4ccc5c(c4)S(=O)(=O)CCOC5)cc3n1)CCC2 [Compound 706]
Output line: 46.9

Input line: Return IC50 for the following molecule: C[C@H]1C[C@@H]1c1ccc2c(n1)N(c1ccc3cnc(CNC(=O)c4ccc5c(c4)S(=O)(=O)CCOC5)cc3n1)CCO2 [Compound 810]
Output line: 185

Input line: Tell me measured IC50 for O=C(NCc1cc2nc(N3CCOc4c(F)cc(C5CC5)nc43)ccc2cn1)c1ccc2c(c1)S(=O)(=O)CCOC2 [Compound 804] please.
Output line: 646

====

targetOrTestSystem: BRG-1 (Homo sapiens)
Construct: made in house; host or cells: High Five insect cells
protocol: ATPase catalytic activity of BRG-1, ADP-Glo in vitro biochemical assay
experimentalParameters: ATPase catalytic activity, ADP-Glo; 30 nM BRG-1, 400 μM ATP; read-out: BRG1 IC50
assayReadout: log10(IC50) (log10 of the value in nM)
Values are log10 of IC50 in nM.

Input line: Please give the documented log10(IC50) of O=C(NCc1cc2nc(-c3cccc(OCC4CC4(F)F)n3)ccc2cn1)c1ccc2c(c1)S(=O)(=O)CCOC2 (stereo not drawn)
Output line: 2.66

Input line: Retrieve log10(IC50) measured for O=C(NCc1cc2nc(N3CCOc4cc(C(F)F)ccc43)ccc2cn1)c1ccc2c(c1)S(=O)(=O)CCOC2 and print it.
Output line: 2.42

Input line: For C[C@@H]1CN(c2cccc(-c3ccc4cnc(CNC(=O)c5cc(F)c6c(c5)S(=O)(=O)[C@H](C)CN6C)cc4n3)n2)C[C@H](C)O1 , write its log10(IC50).
Output line: 3.47

Input line: Retrieve log10(IC50) measured for CN1CCC2(c3cccc(-c4ccc5cnc(CNC(=O)c6ccc7c(c6)S(=O)(=O)CCOC7)cc5n4)n3)CC2C1 (stereo not drawn) and print it.
Output line: 3.34

Input line: Please indicate log10(IC50) recorded for O=C(NCc1cc2nc(-c3cccc(N4CCOCC(F)(F)C4)n3)ccc2cn1)c1ccc2c(c1)S(=O)(=O)CCOC2
Output line: 2.27

Input line: Write down log10(IC50) measured for item CO[C@@H]1C[C@@H]1N(C)c1cccc(-c2ccc3cnc(CNC(=O)c4ccc5c(c4)S(=O)(=O)[C@@H](C)COC5)cc3n2)n1
Output line: 1.87

====

targetOrTestSystem: BRM (Homo sapiens)
Construct: made in house; host or cells: High Five insect cells
Sequence (P51531 whole entry): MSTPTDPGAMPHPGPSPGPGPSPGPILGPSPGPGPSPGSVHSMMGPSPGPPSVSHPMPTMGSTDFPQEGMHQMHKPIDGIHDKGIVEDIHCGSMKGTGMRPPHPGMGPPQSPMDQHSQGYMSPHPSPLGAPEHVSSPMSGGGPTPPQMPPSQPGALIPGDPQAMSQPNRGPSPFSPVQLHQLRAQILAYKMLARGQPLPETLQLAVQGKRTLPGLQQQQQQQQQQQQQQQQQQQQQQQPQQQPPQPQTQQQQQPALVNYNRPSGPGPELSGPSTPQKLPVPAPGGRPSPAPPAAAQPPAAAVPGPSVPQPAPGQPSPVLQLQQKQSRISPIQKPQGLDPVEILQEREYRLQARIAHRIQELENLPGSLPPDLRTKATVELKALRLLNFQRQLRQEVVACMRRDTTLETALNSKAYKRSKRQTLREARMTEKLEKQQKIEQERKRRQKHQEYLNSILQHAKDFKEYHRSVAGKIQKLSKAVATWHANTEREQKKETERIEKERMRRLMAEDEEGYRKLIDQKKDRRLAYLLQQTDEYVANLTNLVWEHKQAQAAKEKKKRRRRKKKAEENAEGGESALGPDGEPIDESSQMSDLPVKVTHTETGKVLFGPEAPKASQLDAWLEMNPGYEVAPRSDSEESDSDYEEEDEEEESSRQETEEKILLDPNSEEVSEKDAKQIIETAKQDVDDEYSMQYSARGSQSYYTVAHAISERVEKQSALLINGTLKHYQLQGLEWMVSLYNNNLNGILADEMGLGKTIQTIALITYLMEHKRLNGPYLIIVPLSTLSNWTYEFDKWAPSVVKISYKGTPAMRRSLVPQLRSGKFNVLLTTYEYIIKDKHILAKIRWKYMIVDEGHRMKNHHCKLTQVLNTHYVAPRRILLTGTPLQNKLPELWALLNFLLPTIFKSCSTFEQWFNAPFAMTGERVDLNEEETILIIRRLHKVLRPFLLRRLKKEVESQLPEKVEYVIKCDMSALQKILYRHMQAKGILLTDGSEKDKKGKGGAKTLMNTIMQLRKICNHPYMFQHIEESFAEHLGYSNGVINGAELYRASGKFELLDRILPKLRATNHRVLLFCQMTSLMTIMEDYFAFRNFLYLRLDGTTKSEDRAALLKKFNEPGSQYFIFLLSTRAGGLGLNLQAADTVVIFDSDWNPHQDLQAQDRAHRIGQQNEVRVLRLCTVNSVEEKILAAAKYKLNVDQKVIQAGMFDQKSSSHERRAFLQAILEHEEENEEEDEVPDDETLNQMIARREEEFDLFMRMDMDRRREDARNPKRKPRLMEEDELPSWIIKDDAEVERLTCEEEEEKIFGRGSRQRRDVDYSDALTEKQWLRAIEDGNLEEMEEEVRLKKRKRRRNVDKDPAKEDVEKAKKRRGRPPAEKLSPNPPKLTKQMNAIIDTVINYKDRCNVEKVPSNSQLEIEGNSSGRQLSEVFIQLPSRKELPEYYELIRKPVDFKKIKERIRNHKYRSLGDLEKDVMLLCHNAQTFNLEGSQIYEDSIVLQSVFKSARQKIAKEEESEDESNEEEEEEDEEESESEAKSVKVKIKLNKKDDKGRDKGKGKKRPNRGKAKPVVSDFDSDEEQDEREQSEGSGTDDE
protocol: ATPase catalytic activity of BRM, ADP-Glo in vitro biochemical assay
experimentalParameters: selectivity ratio BRG1 IC50 / BRM IC50
assayReadout: Ratio* (BRG1 IC50 (μM) divided by BRM IC50 (μM))
Hey, just send me the number, nothing else.

Input line: Provide one value: measured Ratio* (BRG1 IC50 (μM) divided by BRM IC50 (μM)) of CCN(CC)c1cccc(-c2ccc3cnc(CNC(=O)c4ccc5c(c4)S(=O)(=O)CCOC5)cc3n2)n1
Output line: 16.64

Input line: Provide one value: measured Ratio* (BRG1 IC50 (μM) divided by BRM IC50 (μM)) of O=C(NCc1cc2nc(-c3cccc(C4(F)COC4)n3)ccc2cn1)c1ccc2c(c1)S(=O)(=O)CCOC2
Output line: 11.55

Input line: Give Ratio* (BRG1 IC50 (μM) divided by BRM IC50 (μM)) for the following molecule: C[C@@H]1CN(c2cncc(-c3ccc4cnc(CNC(=O)c5ccc(C(F)F)c(S(C)(=O)=O)c5)cc4n3)n2)C[C@H](C)O1
Output line: 12.71

Input line: Dear colleague, please send me the reported Ratio* (BRG1 IC50 (μM) divided by BRM IC50 (μM)) for O=C(NCc1cc2nc(-c3cccc4c3OCO4)ccc2cn1)c1ccc2c(c1)S(=O)(=O)CCOC2 when you can.
Output line: 12.81
